quantity_measured: melting point (°C)

[
  {
    "compound": "CN1C(=O)C2(CC2c2ccccc2)N(C)C(=O)/C1=C/c1cccnc1C#N (single isomer, unassigned)",
    "melting point, °C": 224
  },
  {
    "compound": "CN1C(=O)c2cc3cccnc3n2C(=O)C1(C)Cc1ccccc1 (stereo not shown)",
    "melting point, °C": 180
  },
  {
    "compound": "CN1C(=O)C2(CC2c2ccccc2)N(C)C(=O)/C1=C/c1cccnc1Cl (stereo not shown)",
    "melting point, °C": 169
  }
]

###

quantity_measured: melting point (°C)

[
  {
    "molecule": "CN1C(=O)C2(CC2c2ccccc2)N(C)C(=O)/C1=C/c1ccccc1C#N (single isomer, unassigned) [Example 32]",
    "melting point (°C)": 190
  }
]

I. CN1C(=O)C2(CC2c2ccccc2)N(C)C(=O)/C1=C/c1ccccc1Br (stereo not drawn) [Example 31]
II. CN1C(=O)C2(CC2c2ccccc2)N(C)C(=O)/C1=C/c1ccccc1[N+](=O)[O-] (stereo not drawn) [Example 30]
Between the two listed entries I and II , which has its melting point at the higher number? To answer, give the label that identifies your chosen option. II
